# test: absolute recovery over mixed-bed multilayer solid-phase extraction; higher = better recovery
# assayContext: wastewater effluent; enrichment method: SPE
Record form. Attribute: absolute recovery. Fill in for each entry.
One number for each entry, in %.

Recorded absolute recovery, per entry:
| molecule | unitSpec | measValue |
| --- | --- | --- |
| CON=C(C1=NOCCO1)c1ccccc1Oc1ncnc(Oc2ccccc2Cl)c1F | % | 90.4 |
| C[NH2+]CC(c1ccc(O)cc1)C1(O)CCCCC1 (stereo not given) | % | 76 |
| COc1ccc(C(=O)c2ccccc2)c(O)c1 [Benzophenon-3 (=2-Hydroxy-4-methoxybenzophenon)] | % | 100 |

Hey, quick one: what's absolute recovery for each of these?
1. CNC(=O)Oc1cc(C)c(SC)c(C)c1
2. C[NH+]1CCCC1c1cccnc1 (stereo not given)

Result block:
1. 92.7
2. 47.9

* * *

Record form. Attribute: absolute recovery. Fill in for each entry.
# test: absolute recovery over vacuum-assisted evaporative concentration; higher = better recovery
# assayContext: wastewater influent; enrichment method: VEC
Answers are plain numbers, in %.

Recorded absolute recovery, per entry:
| compound | unitSpec | absolute recovery |
| --- | --- | --- |
| O=C(NCC1CCCC[NH2+]1)c1cc(OCC(F)(F)F)ccc1OCC(F)(F)F (stereo not given) [Flecainid] | % | 106 |
| CCOc1ccc(NC(=O)OC(C)C)cc1OCC [Diethofencarb] | % | 106 |

Hey, quick one: what's absolute recovery for each of these?
1. CSC1=NC(C)(c2ccccc2)C(=O)N1Nc1ccccc1 (stereo not given) [Fenamidone]
2. CCCCCOC(=O)[N-]c1nc(=O)n(C2OC(C)C(O)C2O)cc1F (stereo not given) [Capecitabin]
3. NC(=O)N1c2ccccc2C=Cc2ccccc21 [Carbamazepin]
4. CSc1nc(NC2CC2)nc(NC(C)(C)C)n1 [Irgarol]
5. CON=C(C(=O)OC)c1ccccc1CON=C(C)c1cccc(C(F)(F)F)c1 [Trifloxystrobin]
6. C1=Cc2ccccc2Nc2ccccc21 [Iminostilben]
7. Cc1nc2n(c(=O)c1CC[NH+]1CCC(c3noc4cc(F)ccc34)CC1)CCCC2 [Risperidone]
8. O=C(OC1CC2CCC(C1)[N+]21CCCC1)C(O)(c1ccccc1)c1ccccc1 (stereo not given) [Trospium]

Result block:
1. 98.7
2. 101
3. 98.2
4. 95.5
5. 97.5
6. 37.9
7. 102
8. 103

Hey, quick one: what's absolute recovery for each of these?
1. COC(=O)C(Cc1ccccc1)NC(=O)C(CC(=O)[O-])[NH2+]CCC(C)(C)C (stereo not given) [Neotam]
2. CCNC(=O)C(C)OC(=O)Nc1ccccc1 (stereo not given) [Carbetamid]

Result block:
[81.8, 101]

* * *

Record form. Attribute: absolute recovery. Fill in for each entry.
# test: absolute recovery over mixed-bed multilayer solid-phase extraction; higher = better recovery
# assayContext: surface water; enrichment method: SPE
One number for each entry, in %.

Hey, quick one: what's absolute recovery for each of these?
1. CCN(CC)C(=O)c1cccc(C)c1
2. CC[N+]([O-])(CC)CC(=O)Nc1c(C)cccc1C [Lidocaine-N-Oxide]
3. Cc1cc(C)nc([N-]S(=O)(=O)c2ccc(N)cc2)n1
4. [NH3+]C(Cc1cc(I)c(O)c(I)c1)C(=O)[O-] (stereo not given)
5. C[NH+](C)CC(c1ccc(O)cc1)C1(O)CCCCC1 (stereo not given)

Result block:
89.1
94.7
91.3
39.2
89.9
